Target: human C5 (human, UniProt P01031 19-1676)
Test: cell-based or functional assay
measured_property: Human AP % Max Inhibition, hemolysis assay, NHS (%)

• H4H12170P (antibody, human IgG4, V domains shown, H4H: human IgG4 Fc with S108P hinge mutation) VH: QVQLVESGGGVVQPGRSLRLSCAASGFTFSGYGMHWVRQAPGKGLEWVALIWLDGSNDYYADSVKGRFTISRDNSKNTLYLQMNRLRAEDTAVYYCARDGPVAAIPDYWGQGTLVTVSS VL: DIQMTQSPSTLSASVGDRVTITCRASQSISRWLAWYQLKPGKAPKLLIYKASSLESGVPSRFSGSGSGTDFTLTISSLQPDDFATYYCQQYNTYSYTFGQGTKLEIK = 81.1
• H4H12175P (antibody, human IgG4, V domains shown, H4H: human IgG4 Fc with S108P hinge mutation) VH: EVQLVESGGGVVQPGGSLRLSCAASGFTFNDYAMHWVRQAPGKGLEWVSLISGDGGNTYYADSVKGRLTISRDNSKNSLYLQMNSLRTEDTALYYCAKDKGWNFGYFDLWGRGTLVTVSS VL: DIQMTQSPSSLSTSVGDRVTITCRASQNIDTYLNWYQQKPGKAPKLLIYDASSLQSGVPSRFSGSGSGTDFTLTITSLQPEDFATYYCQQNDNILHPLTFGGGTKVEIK = 80.2
• H4H12163P (antibody, human IgG4, V domains shown, H4H: human IgG4 Fc with S108P hinge mutation) VH: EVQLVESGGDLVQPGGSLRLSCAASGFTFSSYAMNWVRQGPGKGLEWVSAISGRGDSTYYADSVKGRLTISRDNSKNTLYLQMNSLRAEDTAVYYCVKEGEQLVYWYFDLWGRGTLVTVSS VL: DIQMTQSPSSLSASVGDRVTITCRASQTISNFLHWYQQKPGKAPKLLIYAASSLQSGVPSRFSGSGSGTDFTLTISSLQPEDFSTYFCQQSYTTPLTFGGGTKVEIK = 66

These data points were gathered from patent US20170355757A1.
